Target: BTK (Homo sapiens)
Sequence (Q06187 402-655 limits assumed): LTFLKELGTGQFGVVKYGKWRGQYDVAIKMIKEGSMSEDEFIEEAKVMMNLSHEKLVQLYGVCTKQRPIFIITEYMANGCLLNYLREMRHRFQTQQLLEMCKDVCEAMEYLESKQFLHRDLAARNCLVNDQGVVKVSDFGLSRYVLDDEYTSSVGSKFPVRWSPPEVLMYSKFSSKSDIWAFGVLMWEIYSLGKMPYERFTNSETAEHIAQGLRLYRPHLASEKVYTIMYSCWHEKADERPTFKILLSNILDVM
Assay: biochemical
Details: read-out: BTK inhibition (%)
Each item that follows carries a reported inhibition at 10 µM.
Give your result in % as a bare value.

Solved entries:
• O=C(C[S+]([O-])C(c1ccccc1)c1ccccc1)NO (centres unmarked) [PCM-0216068] = -2.3
• CC(C)=CCC[C@H](C(=O)O)[C@@H]1CC[C@]2(C)C3=C(CC[C@@]12C)[C@@]1(C)CCC(=O)C(C)(C)[C@@H]1CC3 [PCM-0216312] = -6.2
• C[C@@H]1C(=O)O[C@H]2[C@H](O)[C@]34[C@@H]5OC(=O)[C@]3(O[C@@H]3OC(=O)[C@H](O)[C@@]34[C@H](C(C)(C)C)[C@H]5O)[C@@]12O [PCM-0215011] = 5.4
• CN1c2ccccc2C(NCCCCCCC(=O)O)c2ccc(Cl)cc2S1(=O)=O (centres unmarked) [PCM-0095097] = -13.2
• O=c1ccc2ccc3occc3c2o1 [PCM-0214995] = -19.3
• S=C=Nc1cccc(NC(=S)NCCCCNC(=S)Nc2cccc(N=C=S)c2)c1 [PCM-0095477] = 38.9

The compound Cc1ccccc1-n1c(CF)nc2ccc(N)cc2c1=O [PCM-0214908] showed inhibition at 10 µM equal to 2.3

// O=C(O)[C@H]1O[C@@H](Oc2cc3oc(-c4ccc(O)cc4)cc(=O)c3c(O)c2O)[C@H](O)[C@@H](O)[C@@H]1O [PCM-0215170] : inhibition at 10 µM value = 0

Data point: CC(=O)O[C@H]1[C@H]2[C@@H](OC(=O)Cc3ccccc3)[C@@H](C)C[C@]2(OC(C)=O)C(=O)/C(C)=C/[C@@H]2[C@H](CC[C@@]13CO3)C2(C)C [PCM-0215129] ; inhibition at 10 µM = -14

* * *

Biological target: BTK (Homo sapiens)
Experiment: biochemical
Details: read-out: BTK inhibition (%), 0.75 uM BTK, […] probe 3l, 15 min preincubation
Quick reference for inhibition at 10 µM among some molecules
Numbers only here, please. The scale is %.

Please review the entries below; each comes with its answer.
• CCOC(=O)NC/C=C/c1ccc2ncnc(Nc3ccc(Oc4ccc(C)nc4)c(C)c3)c2c1 = -15.9
• Nc1nc(CC(=O)Nc2ccc(CCNC[C@H](O)c3ccccc3)cc2)cs1 = 3.9
• CN1CCN2c3ccccc3Cc3ccccc3C2C1 (stereo not shown) = 12.4

Please fill in: inhibition at 10 µM reported for CN(C)CC/C=C1/c2ccccc2COc2ccc(CC(=O)O)cc21 = 8.3

// recorded inhibition at 10 µM for Oc1ccc2c(c1)OC[C@]1(O)Cc3cc(O)c(O)cc3[C@H]21 : 0

Field inhibition at 10 µM (entry NC(=O)c1ccc(N(C(N)=O)c2c(F)cccc2F)nc1-c1ccc(F)cc1F ) reads -32.4

Value of inhibition at 10 µM reported for the molecule O=c1[nH]c(=O)n([C@H]2C[C@H](O)[C@@H](CO)O2)cc1C(F)(F)F is 2.3

// O=C1C(=Cc2ccncc2)CCCC1=Cc1ccncc1 : inhibition at 10 µM value = -4.1

CC(=O)OCC(=O)[C@@]1(O)[C@H](C)C[C@H]2[C@@H]3CCC4=CC(=O)C=C[C@]4(C)[C@@]3(F)[C@@H](O)C[C@@]21C has a reported inhibition at 10 µM of 1.4

Per the records, this molecule ( CC1=CC(=O)CC(C)(C)[C@@]1(O)/C=C/C(C)=C\C(=O)O ) has inhibition at 10 µM equal to 9.3

Lab book: inhibition at 10 µM of CN[C@@H](C)C(=O)N[C@H](C(=O)N1CCC[C@H]1C(=O)N[C@H]1c2ccccc2C[C@H]1OCC#CC#CCO[C@@H]1Cc2ccccc2[C@@H]1NC(=O)[C@@H]1CCCN1C(=O)[C@@H](NC(=O)[C@H](C)NC)C1CCCCC1)C1CCCCC1 noted as 2.6

inhibition at 10 µM reported for this molecule COc1ccc(-c2oc3cc(O)cc(O)c3c(=O)c2O)cc1 : 5.5
